- run-description: Chelator-induced erythrocyte hemolysis
- Type: cell-based, human
- setup-conditions: human, human erythrocyte suspension, pH 7.4
observable: hemolysis at 25 μM (%)
// note: answer is a bare numeric in %

Requested read-out: hemolysis at 25 μM. Entry: Cc1ncc(CO)c(/C=N/NC(=O)c2ccncc2)c1O [PIH, pyridoxal isonicotinoyl hydrazone]
0.0193

###

Property: hemolysis at 20 μM; scope: individual compounds
- run-description: Chelator-induced erythrocyte hemolysis
- Format: cell-based, human
- setup-conditions: human, human erythrocyte suspension, pH 7.4
// note: answer is a bare numeric in %

{"columns": ["compound", "hemolysis at 20 μM, %"],
 "data": [
  ["CC(=O)N(O)CCCCCNC(=O)CCC(=O)N(O)CCCCCNC(=O)CCC(=O)N(O)CCCCCN [DFO, desferrioxamine]", 0.0182]
]}

// switching to the query compound
Requested read-out: hemolysis at 20 μM. Entry: Cc1ncc(CO)c(/C=N/NC(=O)c2ccncc2)c1O [PIH, pyridoxal isonicotinoyl hydrazone]
0.019

###

- run-description: Chelator-induced erythrocyte hemolysis
- Assay type: cell-based, human
- setup-conditions: human, human erythrocyte suspension, pH 7.4
observable: hemolysis at 45 μM (%)
// note: answer is a bare numeric in %

Requested read-out: hemolysis at 45 μM. Entry: `CC(=O)N(O)CCCCCNC(=O)CCC(=O)N(O)CCCCCNC(=O)CCC(=O)N(O)CCCCCN`
0.0192

###

- run-description: Chelator-induced erythrocyte hemolysis
- Format: cell-based, human
- setup-conditions: human, human erythrocyte suspension, pH 7.4
observable: hemolysis at 15 μM (%)
// note: answer is a bare numeric in %

Requested read-out: hemolysis at 15 μM. Entry: Cc1ncc(CO)c(/C=N/NC(=O)c2ccncc2)c1O [PIH, pyridoxal isonicotinoyl hydrazone]
0.0188

###

- run-description: Chelator-induced erythrocyte hemolysis
- Type: cell-based, human
- setup-conditions: human, human erythrocyte suspension, pH 7.4
observable: hemolysis at 60 μM
Entry format: amount then unit.

Requested read-out: hemolysis at 60 μM. Entry: `CC(=O)N(O)CCCCCNC(=O)CCC(=O)N(O)CCCCCNC(=O)CCC(=O)N(O)CCCCCN`
0.0182%

###

- run-description: Chelator-induced erythrocyte hemolysis
- Type: cell-based, human
- setup-conditions: human, human erythrocyte suspension, pH 7.4
observable: hemolysis at 30 μM (%)
// note: answer is a bare numeric in %

{"columns": ["compound", "observable", "numeric-value"],
 "data": [
  ["Cc1ncc(CO)c(/C=N/NC(=O)c2ccncc2)c1O [PIH, pyridoxal isonicotinoyl hydrazone]", "hemolysis at 30 μM", 0.0192]
]}

// switching to the query compound
Requested read-out: hemolysis at 30 μM. Entry: CC(=O)N(O)CCCCCNC(=O)CCC(=O)N(O)CCCCCNC(=O)CCC(=O)N(O)CCCCCN [DFO, desferrioxamine]
0.0186
